- test: Primary screening of photostability of the CyNA library (time-course fluorescence, 8 h)
- Assay type: physicochemical
- Set-up: unit: %
- condition-set: 10 μM in HEPES 100 mM pH 7.4, 2% DMSO
In this section, each of the compounds is paired with its reported F/Fo, fluorescent intensity at 8 hours vs 0 hours.
metric-name: F/Fo, fluorescent intensity at 8 hours vs 0 hours

{"smiles-record": "CCCCCCCCCCCCCCN(C(C)=O)C1=C(/C=C/C2=[N+](CCC)c3ccccc3C2(C)C)CCC/C1=C\\C=C1\\N(CCC)c2ccccc2C1(C)C", "result": 87}
{"smiles-record": "CCCN1/C(=C/C=C2\\CCCC(/C=C/C3=[N+](CCC)c4ccccc4C3(C)C)=C2N(Cc2cccc(Cl)c2)C(C)=O)C(C)(C)c2ccccc21", "result": 45}
{"smiles-record": "CCCN1/C(=C/C=C2\\CCCC(/C=C/C3=[N+](CCC)c4ccccc4C3(C)C)=C2N(CCc2ccccn2)C(C)=O)C(C)(C)c2ccccc21.[I-]", "result": 96}
{"smiles-record": "CCCCN(C(C)=O)C1=C(/C=C/C2=[N+](CCC)c3ccccc3C2(C)C)CCC/C1=C\\C=C1\\N(CCC)c2ccccc2C1(C)C", "result": 76}
{"smiles-record": "CCCN1/C(=C/C=C2\\CCCC(/C=C/C3=[N+](CCC)c4ccccc4C3(C)C)=C2N(Cc2ccccc2)C(C)=O)C(C)(C)c2ccccc21", "result": "94%"}
{"smiles-record": "CCCN1/C(=C/C=C2\\CCCC(/C=C/C3=[N+](CCC)c4ccccc4C3(C)C)=C2N(CC2CCCCC2)C(C)=O)C(C)(C)c2ccccc21", "result": 85}
